# Test system: Staphylococcus aureus MW2 (mecA+)
# Test Summary: normalized DsRed fluorescence (growth of mecA+ strain) (fraction of control range); higher = more growth of mecA+ strain
# Study Conditions: compound concentration: 150 uM; cefoxitin: subinhibitory; fluorescent label: DsRed
Counter-ions that a name gives are not always drawn.
Measured Quantity: normalized DsRed fluorescence
Please reply with the number alone, leaving off any unit.

Use these answered entries as a reference point.
N=C(N)N1CCc2ccccc2C1 = 0.808
C[N+](C)(C)CCOP(=O)(O)OP(=O)([O-])OC[C@H]1O[C@@H](n2ccc(N)nc2=O)[C@H](O)[C@@H]1O = 0.78
O=C(OOC(=O)c1ccccc1)c1ccccc1 = 0.519

Could you share which normalized DsRed fluorescence value was measured for `NNc1nncc2ccccc12` ?
0.694

normalized DsRed fluorescence lookup needed for `CC(=O)OCC(=O)[C@@]12OC(C)(C)O[C@@H]1C[C@H]1[C@@H]3C[C@H](F)C4=CC(=O)C=C[C@]4(C)[C@@]3(F)[C@@H](O)C[C@@]12C` , thanks.
0.736

Look up normalized DsRed fluorescence: `NC[C@H](O)c1ccc(O)c(O)c1`
1.06

# input compound: `CCOC(=O)C(C)(C)Oc1ccc(Cl)cc1` ; wanted: its normalized DsRed fluorescence
0.633

Recorded normalized DsRed fluorescence for CCOC(=O)[C@H](CCc1ccccc1)N[C@H]1CCCN2CCC[C@@H](C(=O)O)N2C1=O [Cilazapril monohydrate (Inhibace)] , please?
0.59

// query normalized DsRed fluorescence value for entry CCN[C@H]1C[C@H](C)S(=O)(=O)c2sc(S(N)(=O)=O)cc21 [Dorzolamide HCL]
0.697

Please give the measured normalized DsRed fluorescence for this compound: `CCS(=O)(=O)N1CC(CC#N)(n2cc(-c3ncnc4[nH]ccc34)cn2)C1`
1.85

Would you kindly share the measured normalized DsRed fluorescence for `CC(=O)[C@H]1CC[C@H]2[C@@H]3C[C@H](C)C4=CC(=O)CC[C@]4(C)[C@H]3[C@@H](O)C[C@]12C` ?
0.378

Which normalized DsRed fluorescence is reported for this compound? `COC(=O)Nc1nc2cc(Sc3ccccc3)ccc2[nH]1`
0.601

====

# System: Staphylococcus aureus MW2 delta-mecA (mecA-)
# Test Summary: normalized GFP fluorescence (growth of mecA- strain) (fraction of control range); higher = more growth of mecA- strain
# Study Conditions: compound concentration: 150 uM; cefoxitin: subinhibitory; fluorescent label: GFP
Counter-ions that a name gives are not always drawn.
Each record gets a class by normalized GFP fluorescence: range A (below 0.1), range B (0.1 to below 0.3), range C (0.3 or more)

These recorded examples may help you get a feel for the data.
CCCC(=O)OCOC(=O)C1=C(C)NC(C)=C(C(=O)OC)C1c1cccc(Cl)c1Cl (stereo not given) [Cleviprex (Clevidipine)] = range B
CCN(CC)C(=O)/C(C#N)=C/c1cc(O)c(O)c([N+](=O)[O-])c1 [Entacapone] = range B
CC(C)NCC(O)COc1ccc(CC(N)=O)cc1 (stereo not given) = range C
Cc1cccc(N(C)C(=S)Oc2ccc3ccccc3c2)c1 = range C
NS(=O)(=O)c1cc(C2(O)NC(=O)c3ccccc32)ccc1Cl (stereo not given) = range C

Dear colleague, I would appreciate it if you could identify the bin for CCOC(=O)[C@H](CCc1ccccc1)N[C@H]1CS[C@H](c2cccs2)CN(CC(=O)O)C1=O [Temocapril HCl] and reply at your convenience.
range C

Please report the category associated with `CS(=O)(=O)c1ccc([C@@H](O)[C@@H](CO)NC(=O)C(Cl)Cl)cc1` , nothing else.
range C

Would you mind sorting `Cc1cc(O)cc(C)c1Cl` into the appropriate category?
range A

Band for `Nc1nc(N)c2nc(-c3ccccc3)c(N)nc2n1` ?
range A

Category of `CCN(CC)CCOc1ccc2c(c1)C(=O)c1cc(OCCN(CC)CC)ccc1-2` , please.
range B

Quick check: band for `CCC1=C(C)CN(C(=O)NCCc2ccc(S(=O)(=O)NC(=O)N[C@H]3CC[C@H](C)CC3)cc2)C1=O`
range A

Category lookup for the molecule `CCCCNc1ccc(C(=O)OCCN(C)C)cc1`
range B

Band of `N=C(N)N1CCc2ccccc2C1` ?
range C

For the record `CCc1c2c(nc3ccc(OC(=O)N4CCC(N5CCCCC5)CC4)cc13)-c1cc3c(c(=O)n1C2)COC(=O)[C@]3(O)CC` , report the class its normalized GFP fluorescence corresponds to.
range C

The entry to classify is O=C(NC(Cc1cc(=O)[nH]c2ccccc12)C(=O)O)c1ccc(Cl)cc1 (stereo not given) [Rebamipide] ; which class holds it?
range B
